# Tested on: 786-0 renal
# methodDescription: NCI tumour cell line growth inhibition, 48 h
Task for the reader: assign each of the following molecules its reported GI50.

Q. Field request: GI50 | item: NCCCCC(NC(=O)C(N)CCCN=C(N)N)C(=O)NC(CCCCN)C(=O)NC(CCCN=C(N)N)C(=O)NC(CCCN=C(N)N)C(=O)NC(CCC(N)=O)C(=O)NC(CCCN=C(N)N)C(=O)NC(CCCN=C(N)N)C(=O)NC(CCCN=C(N)N)C(=O)NCC(=O)NCC(=O)O (centres undefined)
A. > 50 µM

Q. Field request: GI50 | item: `NC(=O)c1cc(N2CC2)c([N+](=O)[O-])cc1[N+](=O)[O-]`
A. > 200 µM

Q. Field request: GI50 | item: `COc1ccccc1C#Cc1ccccc1C#Cc1ccc(OCCCCCCOc2ccccc2C#Cc2ccccc2C#Cc2ccccc2OC)cc1`
A. > 100 µM

Q. Field request: GI50 | item: `NC(=S)N/N=C/c1ccc(OC(=O)COc2cc(Cl)c(Cl)cc2Cl)cn1`
A. 3.54 µM

Q. Field request: GI50 | item: `C(=N\Nc1ncc(-c2cc3cc4c(cc3o2)OCO4)s1)/c1ccco1`
A. 1.97 µM

Q. Field request: GI50 | item: `COc1ccc(-c2ncnc3c2ncn3CC#CCCl)cc1`
A. 1.86 µM

Q. Field request: GI50 | item: CN1C(=O)CCC(N2C(=O)c3cccc(NCCOCCOCCNC(=O)c4cc5c(o4)C(=O)c4ccccc4C5=O)c3C2=O)C1=O (centres undefined)
A. 2.27 µM

Q. Field request: GI50 | item: `COC[C@H](NC(=O)c1cnc(C)s1)C(=O)N[C@@H](COC)C(=O)N[C@@H](Cc1ccccc1)C(=O)[C@@]1(C)CO1`
A. 50.1 µM

Q. Field request: GI50 | item: CSc1ccc(C2=NN(C(C)=O)C(c3ccc(-c4cc(Cl)c(Cl)cc4Cl)o3)C2)cc1 (centres undefined)
A. 18.9 µM

Q. Field request: GI50 | item: `CN(C)c1ccc(/C=N/NC(N)=S)nc1`
A. 3.33 µM

Q. Field request: GI50 | item: `CCCc1nn(C)c2c(=O)[nH]c(-c3cc(S(=O)(=O)N4CCN(C)CC4)ccc3OCC)nc12`
A. > 100 µM

Q. Field request: GI50 | item: `CC1(C)N=C(N)N=C(N)N1c1ccc(CNC(=O)Nc2ccc(S(=O)(=O)F)c(Cl)c2)c(Cl)c1`
A. 0.872 µM

Q. Field request: GI50 | item: `CCSC[C@@H]1C[C@](O)(c2ccc(Cl)cc2)[C@@H](c2ccc(Cl)cc2)O1`
A. 17 µM

Q. Field request: GI50 | item: `O=C1c2c(c(=O)[nH]c3ccccc23)[C@H](c2ccccc2)[C@@H]2CCCN12`
A. 4.61 µM
